Data provenance: BigSolDB 2.1

run-conditions: in acetone, 298.15 K

>  <compound-string>
COC(=O)[C@H](c1ccccc1Cl)N1CCc2sccc2C1.O=S(=O)(O)O

>  <solubility (mole fraction)>
0.0567

$$$$

---

run-conditions: in methyl acetate, 298.15 K
measured-parameter: solubility (mole fraction)

>  <compound-string>
COC(=O)[C@H](c1ccccc1Cl)N1CCc2sccc2C1.O=S(=O)(O)O

>  <measured-parameter>
solubility (mole fraction)

>  <number>
0.00151

$$$$

---

run-conditions: in ethyl acetate, 273.15 K

>  <compound-string>
COC(=O)[C@H](c1ccccc1Cl)N1CCc2sccc2C1.O=S(=O)(O)O

>  <solubility (mole fraction)>
0.000278

$$$$
